System: TK-10
assay.name: NCI tumour cell line growth inhibition, 48 h
Activity calls are given as the source filed them. No stated cut-off is given here; in the data, active = GI50 up to about 1.1 µM and inactive = higher.
assay.readout: GI50

Worked examples, 8 molecules total:
{"molecule": "O=C(OC1C(Oc2ccccc2COC(=O)C2(O)C=CCCC2=O)OC(CO)C(O)C1O)c1ccccc1 (stereo not given)", "GI50": "31.3 µM (inactive)"}
{"molecule": "COc1ccccc1NS(=O)(=O)c1ccc2ncn(NS(=O)(=O)c3ccc(Cl)cc3)c(=O)c2c1", "GI50": "> 100 µM (inactive)"}
{"molecule": "C/C=C\\C(CC(=O)NCCC1CN(C(=O)OCc2ccccc2)c2ccccc21)CC(=O)OC (stereo not given)", "GI50": "> 100 µM (inactive)"}
{"molecule": "CC(=O)c1cccc(N2COC(C)(C)c3nc4ccccc4n3C2)c1", "GI50": "> 100 µM (inactive)"}
{"molecule": "O=S(O)CCCSSc1ccccc1", "GI50": "40.1 µM (inactive)"}
{"molecule": "C[C@@H]1C[C@H]2OC(=O)[C@@]3(C)CCC[C@@](C)([C@@H]23)[C@@]1(O)CCc1ccoc1", "GI50": "> 100 µM (inactive)"}
{"molecule": "NC1=NN(c2ccccc2)C(=O)C1/C(=N\\NC(=O)c1cc2ccccc2cc1O)C(=O)Nc1ccc(Cl)c(Cl)c1 (stereo not given)", "GI50": "55.6 µM (inactive)"}
{"molecule": "O=C(CCc1cc(O)cc(O)c1)NCCCNC(=O)CCc1cc(O)cc(O)c1", "GI50": "> 100 µM (inactive)"}

Take each entry in turn and give its GI50.
1. CCN(CC)CCC(=O)c1ccc(Cl)c(Cl)c1
2. O=c1c2cc(I)ccc2nc(Sc2ncccc2[N+](=O)[O-])n1Cc1ccccc1

1: > 10 µM (inactive); 2: 37.2 µM (inactive)
